Recorded measurements of pIC50, one per entry
target: recombinant HIV-RT (Human immunodeficiency virus type 1 group M subtype B, UniProt P04585); construct: recombinant HIV-RT (diluted in virus disruption buffer to give 200.000 cpm); experiment: biochemical; conditions: IC50, Test I; several values in a cell are repeat determinations
Quick note: pIC50 means taking -log10 of the concentration in moles per liter.

Take a look at these entries with their results.
>  <COMPOUND>
O=C(Nc1ccc(Cl)cn1)N[C@@H]1C[C@@H]1c1c(F)ccc(O)c1Cl (racemic)

>  <TEST_SYSTEM>
recombinant HIV-RT (Human immunodeficiency virus type 1 group M subtype B, UniProt P04585)

>  <pIC50>
8.44

$$$$
>  <COMPOUND>
N#Cc1ccc(NC(=O)N[C@@H]2C[C@@H]2c2c(F)cccc2Cl)nc1 (relative stereo)

>  <TEST_SYSTEM>
recombinant HIV-RT (Human immunodeficiency virus type 1 group M subtype B, UniProt P04585)

>  <pIC50>
8.82

$$$$

Now for the compound whose pIC50 we want.
Bench note, recombinant HIV-RT (Human immunodeficiency virus type 1 group M subtype B, UniProt P04585): O=C(Nc1ccc(Cl)cn1)N[C@@H]1C[C@@H]1c1c(F)cccc1Cl (relative stereo) , pIC50 reads 8.93

Origin of values: patent EP0706514B1
